Taken from ChEMBL document CHEMBL1136445.

Target: Mitochondrial complex I; NADH oxidoreductase (Bos taurus) (UniProt P25708+P52505)
Assay: Inhibitory potency against NADH oxidase with respect to compound 2c
Format: protein-complex assay
endpoint: Relative potency

- compound: "C=C(C)[C@H]1Cc2c(ccc3c2O[C@@H]2COc4cc(OC)c(OC)cc4[C@@H]2C3=O)O1 [ROTENONE]"
  endpoint: "Relative potency"
  measured-number: 7.2
- compound: "CCCCCCCCCCCC[C@H](O)[C@@H]1CC[C@@H]([C@@H](O)CCCC[C@@H](O)CCCCC[C@@H]2CC(CC(C)O)C(=O)O2)O1 (some centres undefined)"
  endpoint: "Relative potency"
  measured-number: 8.2
- compound: "CCCCCCCCCCCC[C@H](O)[C@@H]1CC[C@@H]([C@@H](O)CCCC/C(CCCCC[C@@H](O)CC2=C[C@H](C)OC2=O)=N\\O)O1"
  endpoint: "Relative potency"
  measured-number: 3.8
- compound: "CCCCCCCCCCCC[C@H](O)[C@@H]1CC[C@@H]([C@@H](O)CCCC[C@@H](O)CCCCC[C@@H](O)CC2=C[C@H](C)OC2=O)O1"
  endpoint: "Relative potency"
  measured-number: 3.2
